Attribution: PubChem BioAssay AID588742

METHOD_DESCRIPTION: viability of Vero cells under compound – cytotoxicity control for flavivirus capping enzyme inhibitors (AID 588742)
CONDITION_PARAMETERS: cytotoxicity counter-screen; series mostly up to 40 µM
Among all 1,800 compounds or so, about 410 (23%) were called active. The list is a sample of the results. Results with a measured potency or affinity are listed apart.
OBSERVED_PROPERTY: outcome

Recorded results for 5 compounds are shown here.
[[record]]
compound = "CCOC(=O)c1c(/N=C/c2cccc([N+](=O)[O-])c2O)sc(C)c1C"
observed_value = "inactive"

[[record]]
compound = "O=C1NN(c2ccccc2)C(=O)/C1=C\\c1cccc(OC(=O)c2cccs2)c1"
observed_value = "inactive"

[[record]]
compound = "COc1ccc(/C=c2\\sc3nc(=O)c(C)nn3c2=O)c(OC)c1"
observed_value = "inactive"

[[record]]
compound = "CCC1(C)Cc2c(sc3[nH]c(=O)[nH]c(=O)c23)CS1 (stereo not given)"
observed_value = "inactive"

[[record]]
compound = "CC1(C)CC(=O)C2=C(C1)c1c(ccc3ccccc13)NC2c1cc([N+](=O)[O-])cc([N+](=O)[O-])c1O (stereo not given)"
observed_value = "inactive"


Which value of outcome has been reported for CC1(OC(=O)C2CCCC2)C(=O)C=C2C=C(c3ccsc3)N(CCc3ccccn3)C=C2C1=O (stereo not given) in the records?
inactive

Which value of outcome has been reported for COc1ccc(Cc2c(O)nc(SC)n(C(C)=O)c2=O)cc1 in the records?
inactive

Which value of outcome has been reported for C=CCOC(=O)C1=C(C)N=c2s/c(=C3\C(=O)N(CC(=O)O)c4ccccc43)c(=O)n2C1c1ccc(OC)cc1 (stereo not given) in the records?
inactive

Which value of outcome has been reported for COC(=O)c1ccc(NC(=O)CCc2nnc3ccc(NCc4ccco4)nn23)cc1 in the records?
inactive

Which value of outcome has been reported for COC(=O)CCC(=O)OC1(C)C(=O)C2=CN(C3CCCC3)C(c3ccc(OC)cc3)=CC2=C(Br)C1=O (stereo not given) in the records?
inactive

Which value of outcome has been reported for O=C1NN(c2cccc(Br)c2)C(=O)/C1=C/c1ccc(-c2cc([N+](=O)[O-])ccc2O)o1 in the records?
inactive

Which value of outcome has been reported for O=C1/C(=C/c2ccc(C(=O)O)cc2)CCC/C1=C\c1ccc(C(=O)O)cc1 in the records?
inactive

Which value of outcome has been reported for Cc1ccc(S(=O)(=O)Cc2ccc(C(=O)N3CCC(C(N)=O)CC3)o2)cc1 in the records?
inactive

Which value of outcome has been reported for CC1CCC(C(C)C)C2=C1C(C#N)(C#N)C(C#N)(C#N)C(c1ccccc1)N2 (stereo not given) in the records?
inactive

Which value of outcome has been reported for Cc1cc(C2C(=O)CC(=O)CC2c2ccccc2)on1 (stereo not given) in the records?
inactive

Which value of outcome has been reported for CCOC(=O)c1c(NC(=O)C2C3C=CC(C3)C2C(=O)O)sc2c1CCC(CC)C2 (stereo not given) in the records?
inactive

Which value of outcome has been reported for CCCOc1cccc(C2C(C(=O)c3cc4ccccc4o3)=C(O)C(=O)N2c2cc(C)on2)c1 (stereo not given) in the records?
inactive

Which value of outcome has been reported for COc1cc(C(c2c(C(=O)O)[nH]c3ccccc23)c2c(C(=O)O)[nH]c3ccccc23)ccc1OCc1ccccc1 in the records?
inactive

Which value of outcome has been reported for CC1=NOC(=O)/C1=C\c1ccc(-c2ccc(Br)cc2C(=O)O)o1 in the records?
inactive

Which value of outcome has been reported for COc1cc(N=c2ssnc2Cl)c(OC)cc1Cl in the records?
inactive

====

METHOD_DESCRIPTION: viability of Vero cells under compound – cytotoxicity control for flavivirus capping enzyme inhibitors (AID 588742)
CONDITION_PARAMETERS: cytotoxicity counter-screen; series mostly up to 40 µM
About 410 (23%) of roughly 1,800 compounds were called active. Not all results are given here. Measured potencies and affinities stand elsewhere.
OBSERVED_PROPERTY: outcome

Recorded results for 8 compounds are shown here.
[[record]]
compound = "N#CC1=C(N)C2=C(N3CCCCC3)CCCC2C1(C#N)C#N (stereo not given)"
observed_property = "outcome"
observed_value = "inactive"

[[record]]
compound = "O=C(O)c1cccc(N2C(=O)c3cc([N+](=O)[O-])cc4cc([N+](=O)[O-])cc(c34)C2=O)c1"
observed_property = "outcome"
observed_value = "inactive"

[[record]]
compound = "CCC(COC)Oc1cc(NCc2ccccc2)c2ncn(C(C)C)c2c1 (stereo not given)"
observed_property = "outcome"
observed_value = "inactive"

[[record]]
compound = "Oc1ccc(NCc2ccc(OCc3ccccc3)cc2)cc1"
observed_property = "outcome"
observed_value = "inactive"

[[record]]
compound = "Cc1[nH]c(=O)c(C#N)c(C)c1CCC(=O)Nc1cc(S(C)(=O)=O)ccc1Cl"
observed_property = "outcome"
observed_value = "inactive"

[[record]]
compound = "CCOc1ccc(Nc2ccc(N)c(S(=O)(=O)O)c2)cc1"
observed_property = "outcome"
observed_value = "inactive"

[[record]]
compound = "CC1=NN(c2ccccc2)C(=O)/C1=C\\c1ccc(Oc2ccc([N+](=O)[O-])cc2[N+](=O)[O-])cc1"
observed_property = "outcome"
observed_value = "inactive"

[[record]]
compound = "O=C(CCN1C(=O)/C(=C\\C=C\\c2ccccc2)SC1=S)Nc1ccccc1C(=O)O"
observed_property = "outcome"
observed_value = "inactive"


Which value of outcome has been reported for CCc1ccc(N(C(=O)c2csnn2)C(C(=O)NC(C)(C)CC)c2cccnc2)cc1 (stereo not given) in the records?
inactive

Which value of outcome has been reported for O=C1C=C(Nc2ccccc2C(=O)O)c2ccccc2C1=O in the records?
inactive

====

METHOD_DESCRIPTION: viability of Vero cells under compound – cytotoxicity control for flavivirus capping enzyme inhibitors (AID 588742)
CONDITION_PARAMETERS: cytotoxicity counter-screen; series mostly up to 40 µM
Among all 1,800 compounds or so, about 410 (23%) were called active. Not all results are given here. Results with a measured potency or affinity are listed apart.
OBSERVED_PROPERTY: outcome

Recorded results for 10 compounds are shown here.
[[record]]
compound = "Cc1ccc(-c2cc(C(=O)O)c3cc(Br)ccc3n2)o1"
observed_value = "inactive"

[[record]]
compound = "Cc1ccccc1SCC(=O)OCC(=O)Nc1ccc(N(C)C)cc1"
observed_value = "inactive"

[[record]]
compound = "CN(C)c1ccc(N=Nc2ccc(S(=O)(=O)O)cc2)c2ccccc12"
observed_value = "inactive"

[[record]]
compound = "CCCOC(=O)c1c(-c2ccc(C)cc2C)csc1NC(=O)C1C2CCC(O2)C1C(=O)O (centres undefined)"
observed_value = "inactive"

[[record]]
compound = "Oc1cc(CNCc2ccccc2)c(O)cc1CNCc1ccccc1"
observed_value = "inactive"

[[record]]
compound = "O=C1C(=NO)CCc2ccccc21"
observed_value = "inactive"

[[record]]
compound = "CC(=O)Nc1ccc(NS(=O)(=O)c2ccccc2)c2ccccc12"
observed_value = "inactive"

[[record]]
compound = "O=C(O)CN1C(=O)/C(=C\\c2cc(Br)ccc2OCc2ccc([N+](=O)[O-])cc2)SC1=S"
observed_value = "inactive"

[[record]]
compound = "O=C(O)c1ccc(COc2ccccc2C=C2C(=O)c3ccccc3C2=O)cc1"
observed_value = "inactive"

[[record]]
compound = "COc1ccc2nc3cccc(OC)c3nc2c1"
observed_value = "inactive"


Which value of outcome has been reported for CN(C)c1ccc(NC(=O)CCCc2ccccc2)cc1 in the records?
inactive

Which value of outcome has been reported for COC(=O)c1c(C)oc2c1cc(NS(=O)(=O)c1ccc(C(=O)O)cc1)c1ccccc12 in the records?
inactive

Which value of outcome has been reported for O=C(CNC(=O)N1CC(=O)Nc2ccccc21)Nc1cccc(F)c1 in the records?
inactive

Which value of outcome has been reported for O=C(NCc1ccccc1)c1sc(=S)n2c1[nH]c(=O)c1ccccc12 in the records?
inactive

Which value of outcome has been reported for CN(C)c1ccc2cc(S(=O)(=O)O)cc(O)c2c1 in the records?
inactive

Which value of outcome has been reported for CCCn1nc(NS(=O)(=O)c2cccc3nonc23)c2cc3cccc(C)c3nc21 in the records?
inactive

Which value of outcome has been reported for Cc1ccc(S(=O)(=O)NN2C(=O)/C(=C/c3cccs3)SC2=S)cc1 in the records?
inactive

Which value of outcome has been reported for CCC(=O)OC1(C)C(=O)C2=COC(c3ccc(OC)cc3)=CC2=C(Br)C1=O (centres undefined) in the records?
inactive

Which value of outcome has been reported for O=C(O)c1ccc(N/N=C/c2cn(Cc3ccccc3F)c3ccccc23)cc1 in the records?
inactive

Which value of outcome has been reported for O=C(/C=C/c1ccccc1)n1cnnc1SC/C=C/c1ccccc1 in the records?
inactive

Which value of outcome has been reported for Cc1ccc(S(=O)(=O)N2CCC(C(=O)OC(C)C(=O)NC3CCCCC3C)CC2)cc1C (centres undefined) in the records?
inactive

Which value of outcome has been reported for CCOC(=O)C1Nc2ccccc2C2C(O)C(O)CC12 (centres undefined) in the records?
inactive
